Test system: MDA-MB-468 breast
ASSAY COMMENT: NCI tumour cell line growth inhibition, 48 h
REPORTED METRIC: GI50

Worked set:
COc1cc2cc(Oc3ccc(NC(=O)Nc4cc(C(F)(F)F)cc(C(F)(F)F)c4)cc3)c(C)nc2cc1OCCN1CCOCC1 | 1220 nM
COc1cc2oc(-c3cccc(C(=O)Nc4ccc(Cl)cc4)c3)cc(=O)c2c(OC)c1OC | 3640 nM
COc1ccc2nc3cc(Cl)ccc3c(NCCCNCCO)c2c1 | 454 nM
O=C1NC(=NCCc2ccc(F)cc2)S/C1=C\c1ccc2ncccc2c1 | > 20900 nM
c1cc(N[C@@H]2CCNC2)nc(-c2cnc3ccc(-c4cn[nH]c4)cn23)c1 | 957 nM

Field: GI50. Fill in for each record below.
1. COc1ccc2c(c1)OC(N)=C(C#N)C2c1cc(OC)c(OC)c(OC)c1 (centres undefined)
2. COc1ccc(C(O)c2cc3c(N)c(C(=O)Nc4ccc(Cl)cc4)sc3nc2C)cc1 (centres undefined)
3. CC(C)(C)c1cc(C(=O)Nc2ccccc2C(=O)NCCN)cc(C(C)(C)C)c1
4. CN1CCN(CC(=O)N(C)c2ccc(N=C(c3ccccc3)c3c(O)[nH]c4ccc(C#N)cc34)cc2)CC1

["23.9 nM", "1940 nM", "2010 nM", "10700 nM"]
